# Experimental target: glucagon receptor (UniProt P47871 26-477, limits assumed)
# Sequence (P47871 26-477 limits assumed): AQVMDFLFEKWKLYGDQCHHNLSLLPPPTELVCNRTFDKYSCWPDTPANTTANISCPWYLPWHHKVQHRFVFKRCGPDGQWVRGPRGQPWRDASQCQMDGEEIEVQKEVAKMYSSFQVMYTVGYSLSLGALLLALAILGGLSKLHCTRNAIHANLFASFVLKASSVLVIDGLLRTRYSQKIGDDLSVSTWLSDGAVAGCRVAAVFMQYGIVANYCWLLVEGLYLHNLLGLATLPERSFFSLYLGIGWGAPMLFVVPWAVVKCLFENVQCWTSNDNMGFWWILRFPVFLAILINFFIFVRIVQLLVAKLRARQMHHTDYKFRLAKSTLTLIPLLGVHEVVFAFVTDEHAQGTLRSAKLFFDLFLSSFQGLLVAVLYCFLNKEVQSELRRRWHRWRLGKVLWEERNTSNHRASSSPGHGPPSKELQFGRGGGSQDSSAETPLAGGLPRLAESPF
# Assay comment: cell-based or functional assay
Numbered stars: 1 amine (or outer) side, 2 acyl side, 3 side chain; on linkers, the order of the positions; unused ones are H or OH. Square brackets hold non-standard residues; d marks the D form. Side chains are listed from the residue outwards. Ends that are not written are not given here. * marks the point of attachment. γGlu = O=C(O)[C@H](CCC(=O)[*:2])N[*:1]; Palmitoyl = CCCCCCCCCCCCCCCC(=O)*; Orn = NCCC[C@H](N)C(=O)O; Aib = CC(C)(N)C(=O)O
Property: EC50 at Glucagon Receptor (cAMP luciferase reporter, HEK293)
Give the value; after it, write the unit.

Each of the following entries comes with a recorded value; kindly state EC50 at Glucagon Receptor (cAMP luciferase reporter, HEK293) for each.
1. H[Aib]QGTFTSDK([γGlu-Palmitoyl])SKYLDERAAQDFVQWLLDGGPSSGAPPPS-NH2 [peptide of SEQ ID NO: 10]
2. [dH]PQGTFTSDK([γGlu-Palmitoyl])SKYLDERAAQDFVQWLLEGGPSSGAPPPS-NH2 [peptide of SEQ ID NO: 27]

["5 pM", "34 pM"]

Notebook: Ac-[Orn]AQGTFTSDK([γGlu-Palmitoyl])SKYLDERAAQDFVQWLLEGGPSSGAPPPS-NH2 [peptide of SEQ ID NO: 30] , EC50 at Glucagon Receptor (cAMP luciferase reporter, HEK293) read as 635 pM
